# maps each entry to its SETFA damage score, application pre-emergence
# Tested on: Setaria faberi
# assayRemarks: Pre-emergence herbicidal activity, SETFA
# Format: in vivo
# Parameters: key: 5=total damage to plant; 0=no damage to plant
# assaySetup: 1000 g/Ha, pre-emergence spray, evaluated after 13 days, scale 0-5
Hey, just send me the number, nothing else.

Exam item: Looking for the measured SETFA damage score, application pre-emergence of CON1C(=O)N(c2cc(C(C)(F)F)c(Cl)nn2)C(O)C1C (stereo not drawn) [Example A12] , can you help?
Marked response: 5

Exam item: Same lookup for CC1C(O)N(c2cc(C(C)(C)F)c(-c3ccccc3)nn2)C(=O)N1C (stereo not drawn) [Example A3] , please.
Marked response: 5

Exam item: Same lookup for CCOC1C(O)N(c2cc(C(C)(F)F)c(Cl)nn2)C(=O)N1C (stereo not drawn) [Example A10] , please.
Marked response: 5

Exam item: Same lookup for CN1C(=O)N(c2cc(C(F)(F)F)c(Cl)nn2)C(O)C1O (stereo not drawn) [Example A22] , please.
Marked response: 4

Exam item: Same lookup for CN1CC(O)N(c2cc(C(C)(C)F)c(-c3ccccc3)nn2)C1=O (stereo not drawn) [Example A4] , please.
Marked response: 5

* * *

# maps each entry to its ALOMY damage score, application post-emergence
# Tested on: Alopecurus myosuroides
# assayRemarks: Post-emergence herbicidal activity, ALOMY
# Type: in vivo
# Design: key: 5=total damage to plant; 0=no damage to plant
# assaySetup: 1000 g/Ha, post-emergence spray (8 days cultivation), evaluated after 13 days, scale 0-5

[
  {
    "compound": "CN1CC(O)N(c2cc(C(C)(C)F)c(Cl)nn2)C1=O (centres unmarked) [Example A1]",
    "measValue": 5
  },
  {
    "compound": "CN1CC(O)N(c2cc(C(C)(C)F)c(-c3ccccc3)nn2)C1=O (centres unmarked) [Example A4]",
    "measValue": 5
  },
  {
    "compound": "CC1C(O)N(c2ccc(C(=O)NC(C)(C)C#N)nn2)C(=O)N1C (centres unmarked) [Example A13]",
    "measValue": 4
  },
  {
    "compound": "CN1CC(O)N(c2cc(C(F)(F)F)c(Cl)nn2)C1=O (centres unmarked) [Example A5]",
    "measValue": 4
  }
]

Exam item: Looking for the measured ALOMY damage score, application post-emergence of CC1C(O)N(c2ccc(C(=O)NC(C)(C)C)nn2)C(=O)N1C (centres unmarked) [Example A15] , can you help?
Marked response: 5

* * *

# System: Setaria faberi
# assayRemarks: Pre-emergence herbicidal activity, SETFA
# Type: in vivo
# Design: key: 5=total damage to plant; 0=no damage to plant
# assaySetup: 1000 g/Ha, pre-emergence spray, evaluated after 13 days, scale 0-5
outcomeMeasure: SETFA damage score, application pre-emergence
Hey, just send me the number, nothing else.

[
  {
    "compound": "CC1C(O)N(c2cc(C(F)(F)F)cnn2)C(=O)N1C (stereo not shown)",
    "measValue": 5
  },
  {
    "compound": "CN1CC(O)N(c2ccc(C(=O)NC(C)(C)C)nn2)C1=O (stereo not shown)",
    "measValue": 5
  }
]

Proceeding to the next compound to report its SETFA damage score, application pre-emergence.
Exam item: Looking for the measured SETFA damage score, application pre-emergence of CON1C(=O)N(c2ccc(C(=O)NC(C)(C)C)nn2)C(O)C1C (stereo not shown) , can you help?
Marked response: 4
